- target: NGF (nerve growth factor) (Homo sapiens, UniProt P01138 P01138:122-241)
- Sequence (P01138 122-241, one chain of several): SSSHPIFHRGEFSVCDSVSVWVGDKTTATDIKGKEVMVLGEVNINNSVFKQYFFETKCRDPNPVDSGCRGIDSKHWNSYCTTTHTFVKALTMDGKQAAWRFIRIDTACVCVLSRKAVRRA
- assay.summary: cell_activity; neurite; TF-1 0.033
- test.context: tags: R&D Systems; chain copies: 2
readout.kind: pIC50
Answer as the number alone; pIC50 is minus log10 of concentration in mol/L.

The binder listed as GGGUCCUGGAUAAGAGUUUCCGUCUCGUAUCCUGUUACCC (ssRNA, as 82(1) except 2'-OMe U28) [SEQ ID NO: 82(10)] shows pIC50 equal to 9.89
